Provide the recorded melting point for the entries that follow.

Q: # melting point lookup, item CC(C)Oc1c(-c2ccc(S(C)(=O)=O)cc2)cnn(CC(F)(F)F)c1=O
Result: 152 to 153 °C

Q: Continue with C=C1CCC(c2ccc(N3CC(COC)OC3=O)cc2)CC1 (racemic)
Result: 63 to 65 °C

Q: Continue with COCn1ncc2cc(-c3nnc(SCc4ccc(OC)c(C(F)(F)F)c4)o3)ccc21
Result: 158 to 159 °C

Q: Continue with CCCCOc1ncc(C(C)=O)cc1-c1nc2c(CC)n(C3CN(CC)C3)nc2c(=O)[nH]1
Result: 143 to 144 °C

Q: Continue with O=c1c2ccccc2nc(-c2sc(Nc3ccc(Cl)cc3)nc2-c2ccccc2)n1-c1ccc(Cl)cc1
Result: 271 to 272 °C

Q: Continue with CCNCC1CCN(c2c(F)cc3c(=O)c(C(=O)O)cn(C(C)C)c3c2F)C1 (centres undefined)
Result: 230 to 231 °C

Q: Continue with Clc1ccc(Oc2cncc(Cl)n2)cc1
Result: 92 to 93 °C

Q: Continue with CCOC(=O)c1cc2ccc(Cl)c(N(C)S(=O)(=O)c3cccs3)c2[nH]1
Result: 156 to 157 °C

Q: Continue with NC(=S)NN=C(CCCCl)c1ccc(Cl)cc1
Result: 125 to 126 °C

Q: Continue with CC(C)(O)c1cnn2c(-c3ccc(F)c(-c4ccc(F)cn4)c3)cnc2n1
Result: 222 °C

Q: Continue with O=C(CBr)Nc1ccccc1
Result: 131 to 135 °C

Q: Continue with COc1ccc(CNc2nc(N3CCC(C(=O)O)CC3)nc3sc(C(F)(F)F)cc23)cc1OC
Result: 203 °C

Q: Continue with O=c1c2cccnc2c(-c2cccc(Cl)c2)cn1CC1CC1
Result: 120 to 122 °C

Q: Continue with C=CCOc1ccccc1OCC(O)CN1CCC(N2CCCNC2=O)CC1 (centres undefined)
Result: 122 to 125 °C

Q: Continue with O=C(c1ccccc1F)c1cc(Cl)ccc1C#CCN1C(=O)c2ccccc2C1=O
Result: 158 to 161 °C

Q: Continue with COC(=O)c1cncn1C1c2ccsc2CC1(C)C (centres undefined)
Result: 62 to 63 °C

Q: Continue with CCc1c(CNc2ccc3ccc(C)nc3n2)c(CC)c(CNc2ccc3ccc(C)nc3n2)c(CC)c1CNc1ccc2ccc(C)nc2n1
Result: 207 to 208 °C

Q: Continue with CCc1nc2cc(C(F)(F)F)c(Cl)cc2n1-c1ccc(C[C@H](C)NC(=O)NS(=O)(=O)c2ccc(C)cc2)cc1
Result: 138 to 141 °C

Q: Continue with COc1cccc(NC(=O)N[C@H]2C[C@H](C(=O)O)Nc3cc(Cl)cc(Cl)c32)c1 (relative stereo)
Result: 181 to 183 °C

Q: Continue with Cc1nnc(-c2cnc3occ(-c4ccccc4Cl)c3c2)o1
Result: 141 to 142 °C

Q: Continue with O=C(O)c1ccc(NC(=O)c2ccncc2)cc1
Result: 362 to 365 °C

Q: Continue with CCOC(=O)CCSc1nnsc1-c1ccc(F)cc1
Result: 76.5 to 77.5 °C

Q: Continue with COC(=O)c1cc(C)c(OCCNC(=O)C2Cc3ccccc3N2S(=O)(=O)c2ccc(-c3ccc(F)cc3)cc2)c(C)c1 (centres undefined)
Result: 91 °C

Q: Continue with CC(=O)OCC=Cc1ccccc1S(N)(=O)=O
Result: 94 to 95 °C

Q: Continue with COc1cc2ccc(-c3ccc(C(=O)O)cc3)cc2cc1C12CC3CC(CC(C3)C1)C2
Result: 360 °C

Q: Continue with O=P(O)(O)C(O)(CCc1nccn1Cc1ccccc1)P(=O)(O)O
Result: 238 °C

Q: Continue with c1ccc(N2CCN(Cc3ccc4ccccc4c3)CC2)nc1
Result: 124 to 126 °C

Q: Continue with O=C1c2ccccc2C(=O)N1CCOc1cccc2c1CCC2
Result: 128 to 132 °C

Q: Continue with Nn1cccc1C(=O)c1ccccc1F
Result: 44 to 47 °C

Q: Continue with COc1cc([N+](=O)[O-])c2ncccc2c1Cl
Result: 204 to 206 °C

Q: Continue with CC(C)(C)OC(=O)COC1CCN(C(=O)[C@]2(C)CCCN2C(=O)c2ccc(C#N)cc2)CC1
Result: 180 to 182 °C

Q: Continue with CN(C)S(=O)(=O)Nc1cccc(-c2cccc(-c3nc(-c4ccc(C(F)(F)F)cc4)cc(C(F)(F)F)n3)c2)c1
Result: 113 °C

Q: Continue with Oc1cc(Cl)c(OCc2ccc(F)c(Oc3ccccc3)c2)c(Cl)c1
Result: 145 °C

Q: Continue with O=C(Nc1cccc([N+](=O)[O-])c1)C(F)(F)C(F)(F)F
Result: 111 to 113 °C

Q: Continue with ClC(Cl)c1cccc2nnsc12
Result: 131 to 133 °C

Q: Continue with O=C1Nc2c(C(F)(F)F)cccc2C1(O)c1cc(Cl)ccc1O (centres undefined)
Result: 205 to 207 °C

Q: Continue with OC[C@H]1C[C@@H]2c3ccccc3Oc3ccc(F)cc3[C@H]2N1
Result: 108 to 109 °C

Q: Continue with CC(c1ccccc1N1CCCCC1)C(C(N)=O)c1ccc(C(=O)N2CCOCC2)cc1 (centres undefined)
Result: 148 to 150 °C

Q: Continue with CC(C)(C)OC(=O)NCCc1cccc(OCCC2Oc3ccccc3N(Cc3ccccc3Cl)C2=O)c1 (centres undefined)
Result: 61 to 65 °C
